- Tested on: EKVX
- testProtocol: NCI tumour cell line growth inhibition, 48 h
Calls of active or inactive are those of the source. Cut-off read from the data, not from the text of the source: active = GI50 up to about 1.1 µM and inactive = higher.
Please go through the items and note down their GI50.

Prompt: Sample O=C(O)/C(=C\c1ccc(O)cc1)c1cccc2ccccc12 — what was its GI50?
Response: 90.6 µM (inactive)

Prompt: Requested read-out: GI50. Entry: C1CNCCN2CCCNCCN(C1)CC2
Response: > 100 µM (inactive)

Prompt: What does the record list as GI50 for CC(=O)Oc1c(OC(C)=O)c(-c2ccc(O)c(O)c2)c(O)c(O)c1-c1ccc(O)cc1 ?
Response: > 100 µM (inactive)

Prompt: For the molecule shown here, COc1ccc(C2(CC(C)C)CCN(S(=O)(=O)c3ccc(C)cc3)C2)cc1OC (stereo not given) , give the reported GI50.
Response: 76.9 µM (inactive)

Prompt: Look at this molecule and give its reported GI50. CC(C)[Si](CC1=CCCCC12C(=O)N(COCC[Si](C)(C)C)c1ccccc12)(C(C)C)C(C)C (stereo not given)
Response: 63.8 µM (inactive)

Prompt: Name the recorded GI50 for C=Cc1nc2nnc(CCCCCCCCc3nnc4nc(C=C)[nH]n34)n2[nH]1 .
Response: 61.5 µM (inactive)

Prompt: Requested read-out: GI50. Entry: CCOC(=O)Cc1ccc(Nc2nc3ccccc3nc2C(=O)OCC)cc1
Response: 38.4 µM (inactive)

Prompt: What does the record list as GI50 for CC(=O)OC1(C#N)CC2OC1C1N=NN(C(=O)OC(C)(C)C)C21 (stereo not given) ?
Response: 55.1 µM (inactive)

Prompt: GI50 lookup needed for CSc1ccc(/C=C2\CNC/C(=C\c3ccc(SC)cc3)C2=O)cc1 , thanks.
Response: > 170 µM (inactive)

Prompt: Report GI50 for CC(=O)OCCOCn1c2c(c(=S)[nH]c1=O)CCC2 please.
Response: > 100 µM (inactive)
